biological target: Serotonin 1 (5-HT1) receptor (Rattus norvegicus, UniProt P28564+P30940+P19327+P28565); test: Compound was evaluated for the inhibition of [3H]5-HT (concentration of 12 nM) specific binding to rat hippocampus; type: tissue-based
For each record, write down the corresponding IC50.
Answers are plain numbers, in nM.

CCCN1CCOC(c2cccc(OC)c2)C1 (centres undefined) :: 1000
CCCN1CCOC(c2cccc(Cl)c2)C1 (centres undefined) :: 5000
CCCN1CCOC(c2ccccc2Cl)C1 (centres undefined) :: 3000

Below: the item to evaluate.
Quick note, IC50 for CCCN1CCOC(c2ccccc2OC)C1 (centres undefined) landed at 1000

###

molecular target: D(2) dopamine receptor (Rattus norvegicus); assay: Ability to displace [3H]spiroperidol, from dopamine receptor D2 specific binding sites of rat striatal membranes
Sequence (P61169 whole entry): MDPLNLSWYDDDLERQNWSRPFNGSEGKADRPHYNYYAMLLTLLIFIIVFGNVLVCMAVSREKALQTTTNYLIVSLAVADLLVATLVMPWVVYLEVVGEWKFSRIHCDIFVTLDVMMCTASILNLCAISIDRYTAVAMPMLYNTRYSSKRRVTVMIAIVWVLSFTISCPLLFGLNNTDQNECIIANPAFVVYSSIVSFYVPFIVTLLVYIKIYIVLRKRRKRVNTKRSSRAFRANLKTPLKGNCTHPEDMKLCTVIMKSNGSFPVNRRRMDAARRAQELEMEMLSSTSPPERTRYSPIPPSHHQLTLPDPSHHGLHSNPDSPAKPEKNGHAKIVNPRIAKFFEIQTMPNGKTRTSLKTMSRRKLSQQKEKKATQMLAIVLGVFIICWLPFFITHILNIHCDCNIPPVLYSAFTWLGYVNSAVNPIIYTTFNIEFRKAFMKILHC
Give pIC50 for every item shown.
Numbers only, as −log10 of the molar value.

CCCN1CCCC(c2ccccc2O)C1 (configuration not stated) :: 5.15

Continue with the next molecule.
Query CCCN1CCCC(c2ccccc2OC)C1 (configuration not stated) yields pIC50 of 5.10
